- experimental_system: Macaca fascicularis IL-36R extracellular domain expressed with a C-terminal myc-myc-hexahistidine tag (Macaca fascicularis)
- experimental_protocol: SPR (Biacore 4000), mAb captured on anti-human Fc, 25°C
readout_label: 100 nM mfIL-36R-MMH Bound (RU)
Numeric answer only, unit RU assumed.

# example entries with known answers
H4H14700P2 (antibody, human IgG4 S228P, kappa, V domains shown) VH: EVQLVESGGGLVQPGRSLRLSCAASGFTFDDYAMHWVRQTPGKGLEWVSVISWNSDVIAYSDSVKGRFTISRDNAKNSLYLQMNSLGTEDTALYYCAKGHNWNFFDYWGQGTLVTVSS VL: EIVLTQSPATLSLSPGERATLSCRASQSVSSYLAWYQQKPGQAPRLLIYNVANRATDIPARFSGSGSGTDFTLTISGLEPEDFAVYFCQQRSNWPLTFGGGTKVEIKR = 48
H4H14728P (antibody, human IgG4 S228P, kappa, V domains shown) VH: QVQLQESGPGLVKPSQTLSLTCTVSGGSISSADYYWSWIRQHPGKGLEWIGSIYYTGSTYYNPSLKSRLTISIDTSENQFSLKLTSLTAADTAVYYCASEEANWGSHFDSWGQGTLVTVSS VL: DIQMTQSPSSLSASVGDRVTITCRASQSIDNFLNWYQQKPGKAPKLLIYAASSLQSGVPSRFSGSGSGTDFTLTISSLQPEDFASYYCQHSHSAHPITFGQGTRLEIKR = 51
H4H14709P (antibody, human IgG4 S228P, kappa, V domains shown) VH: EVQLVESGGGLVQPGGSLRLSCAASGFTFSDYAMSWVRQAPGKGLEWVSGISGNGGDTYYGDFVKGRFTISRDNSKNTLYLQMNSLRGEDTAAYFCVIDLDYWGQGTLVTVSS VL: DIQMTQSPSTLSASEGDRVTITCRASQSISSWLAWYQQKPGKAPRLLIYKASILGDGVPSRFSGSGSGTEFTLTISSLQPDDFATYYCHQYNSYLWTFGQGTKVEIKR = 34
H4H14757P (antibody, human IgG4 S228P, kappa, V domains shown) VH: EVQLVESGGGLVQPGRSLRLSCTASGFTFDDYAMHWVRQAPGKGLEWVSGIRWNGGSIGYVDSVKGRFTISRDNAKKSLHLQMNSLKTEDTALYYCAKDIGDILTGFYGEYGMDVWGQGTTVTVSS VL: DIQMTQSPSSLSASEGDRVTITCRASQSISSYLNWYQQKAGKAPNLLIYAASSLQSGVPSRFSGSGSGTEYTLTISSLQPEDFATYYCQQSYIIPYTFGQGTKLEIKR = 1
H4H14708P2 (antibody, human IgG4 S228P, kappa, V domains shown) VH: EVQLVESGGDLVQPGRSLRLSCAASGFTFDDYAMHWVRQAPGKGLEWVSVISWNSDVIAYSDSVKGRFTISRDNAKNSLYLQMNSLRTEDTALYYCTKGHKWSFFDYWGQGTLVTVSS VL: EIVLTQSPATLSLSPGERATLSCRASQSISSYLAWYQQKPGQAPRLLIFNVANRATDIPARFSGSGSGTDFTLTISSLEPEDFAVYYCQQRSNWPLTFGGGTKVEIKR = 51
H4H14731P (antibody, human IgG4 S228P, kappa, V domains shown) VH: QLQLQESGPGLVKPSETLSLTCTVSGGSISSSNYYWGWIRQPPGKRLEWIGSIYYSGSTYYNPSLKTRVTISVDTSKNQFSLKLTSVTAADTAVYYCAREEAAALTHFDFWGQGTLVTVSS VL: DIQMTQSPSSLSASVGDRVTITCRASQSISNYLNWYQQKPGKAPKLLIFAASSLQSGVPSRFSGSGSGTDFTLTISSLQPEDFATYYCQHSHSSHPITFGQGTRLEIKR = 33

Okay, next one:
The reported 100 nM mfIL-36R-MMH Bound (RU) of the binder H4H14758P (antibody, human IgG4 S228P, kappa, V domains shown) VH: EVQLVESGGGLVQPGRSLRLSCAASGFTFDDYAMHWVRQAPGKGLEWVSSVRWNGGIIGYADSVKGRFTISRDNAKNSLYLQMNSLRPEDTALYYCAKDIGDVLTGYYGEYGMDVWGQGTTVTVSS VL: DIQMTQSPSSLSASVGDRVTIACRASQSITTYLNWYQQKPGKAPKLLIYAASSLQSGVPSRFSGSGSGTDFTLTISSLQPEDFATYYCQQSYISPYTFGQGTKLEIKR was -1
